- assayed system: MCH-1R (Homo sapiens, UniProt Q99705)
- Sequence (Q99705 whole entry): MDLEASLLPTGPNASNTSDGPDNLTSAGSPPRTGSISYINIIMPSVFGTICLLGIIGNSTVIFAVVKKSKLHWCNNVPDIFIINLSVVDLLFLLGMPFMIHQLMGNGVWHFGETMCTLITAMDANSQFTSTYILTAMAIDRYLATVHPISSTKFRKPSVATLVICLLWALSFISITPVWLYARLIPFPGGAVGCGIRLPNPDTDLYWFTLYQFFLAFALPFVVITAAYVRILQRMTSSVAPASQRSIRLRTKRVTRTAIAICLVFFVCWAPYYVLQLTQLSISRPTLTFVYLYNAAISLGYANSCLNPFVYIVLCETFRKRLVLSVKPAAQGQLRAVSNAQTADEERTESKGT
- assay: Aequorin bioluminescence functional assay, 293AEQ17/MCH-1R cells
- Type: cell-based
- Parameters: expressed in transfected cells
- condition notes: aequorin, 293AEQ17/MCH-1R cells; read-out: MCH-1R EC50
Residues, ends and D or L forms follow the SMILES beside them.
# Lookup of reported pEC50 keyed by entry
Answer as the number alone; pEC50 is minus log10 of concentration in mol/L.

These recorded examples may help you get a feel for the data.
[
  {
    "compound": "CSCC[C@@H]1NC(=O)[C@@H](NC(=O)[C@@H](CCCNC(N)=O)NC(C)=O)CSSC[C@@H](C(N)=O)NC(=O)[C@@H]2CCCN2C(=O)[C@H](CCCNC(=N)N)NC(=O)[C@H](Cc2ccc(O)cc2)NC(=O)[C@H](C(C)C)NC(=O)[C@H](CCCNC(=N)N)NC(=O)CNC(=O)[C@H](CC(C)C)NC1=O [SEQ. ID. NO. 14]",
    "result": 6.04
  },
  {
    "compound": "CSCC[C@@H]1NC(=O)[C@@H](NC(=O)[C@H](CCCNC(=N)N)NC(C)=O)CSSC[C@@H](C(N)=O)NC(=O)[C@@H]2CCCN2C(=O)[C@H](CCCNC(=N)N)NC(=O)[C@H](Cc2ccc(O)cc2)NC(=O)[C@H](C(C)C)NC(=O)[C@H](CCCNC(=N)N)NC(=O)[C@H](CC(N)=O)NC(=O)[C@H](CC(C)C)NC1=O [SEQ. ID. NO. 25] (HELM PEPTIDE1{[ac].R.C.M.L.N.R.V.Y.R.P.C.[am]}$PEPTIDE1,PEPTIDE1,3:R3-12:R3$$$V2.0)",
    "result": 7.29
  },
  {
    "compound": "CSCC[C@@H]1NC(=O)[C@@H](NC(=O)[C@H](CCCNC(=N)N)NC(C)=O)CSSC[C@@H](C(N)=O)NC(=O)[C@@H]2CCCN2C(=O)[C@H](CCCNC(=N)N)NC(=O)[C@H](Cc2ccc(O)cc2)NC(=O)[C@H](C(C)C)NC(=O)[C@H](CCCNC(=N)N)NC(=O)[C@H](C)NC(=O)[C@H](CC(C)C)NC1=O [SEQ. ID. NO. 16] (HELM PEPTIDE1{[ac].R.C.M.L.A.R.V.Y.R.P.C.[am]}$PEPTIDE1,PEPTIDE1,3:R3-12:R3$$$V2.0)",
    "result": 7.29
  }
]

Ask | Give the reported pEC50 for this compound. CSCC[C@@H]1NC(=O)[C@@H](NC(=O)[C@H](CCCNC(=N)N)NC(C)=O)CSSC[C@@H](C(N)=O)NC(=O)[C@@H]2CCCN2C(=O)[C@H](CCCNC(=N)N)NC(=O)[C@H](Cc2ccc(O)cc2)NC(=O)[C@H](C(C)C)NC(=O)[C@H](CCCNC(=N)N)NC(=O)[C@H](Cc2ccccc2)NC(=O)[C@H](CC(C)C)NC1=O [SEQ. ID. NO. 20] (HELM PEPTIDE1{[ac].R.C.M.L.F.R.V.Y.R.P.C.[am]}$PEPTIDE1,PEPTIDE1,3:R3-12:R3$$$V2.0)
Reply | 7.18

Ask | Give the reported pEC50 for this compound. CSCC[C@@H]1NC(=O)[C@@H](NC(=O)[C@@H](Cc2ccccc2)NC(C)=O)CSSC[C@@H](C(N)=O)NC(=O)[C@@H]2CCCN2C(=O)[C@H](CCCNC(=N)N)NC(=O)[C@H](Cc2ccc(O)cc2)NC(=O)[C@H](C(C)C)NC(=O)[C@H](CCCNC(=N)N)NC(=O)CNC(=O)[C@H](CC(C)C)NC1=O [SEQ. ID. NO. 9]
Reply | 7.18

Ask | Give the reported pEC50 for this compound. CSCC[C@@H]1NC(=O)[C@@H](NC(=O)[C@@H](CCCNC(=N)N)NC(C)=O)CSSC[C@@H](C(N)=O)NC(=O)[C@@H]2CCCN2C(=O)[C@H](C)NC(=O)[C@H](Cc2ccc(O)cc2)NC(=O)[C@H](C(C)C)NC(=O)[C@H](CCCNC(=N)N)NC(=O)[C@H](CC(N)=O)NC(=O)[C@H](CC(C)C)NC1=O [SEQ. ID. NO. 33] (HELM PEPTIDE1{[ac].[dR].C.M.L.N.R.V.Y.A.P.C.[am]}$PEPTIDE1,PEPTIDE1,3:R3-12:R3$$$V2.0)
Reply | 6.59
